Numbers sourced from patent US5696108A.

pIC50: −log10 of the molar value.
Consider the following pIC50 values measured on src (Homo sapiens, UniProt P12931).
Sequence (P12931 whole entry, species assumed): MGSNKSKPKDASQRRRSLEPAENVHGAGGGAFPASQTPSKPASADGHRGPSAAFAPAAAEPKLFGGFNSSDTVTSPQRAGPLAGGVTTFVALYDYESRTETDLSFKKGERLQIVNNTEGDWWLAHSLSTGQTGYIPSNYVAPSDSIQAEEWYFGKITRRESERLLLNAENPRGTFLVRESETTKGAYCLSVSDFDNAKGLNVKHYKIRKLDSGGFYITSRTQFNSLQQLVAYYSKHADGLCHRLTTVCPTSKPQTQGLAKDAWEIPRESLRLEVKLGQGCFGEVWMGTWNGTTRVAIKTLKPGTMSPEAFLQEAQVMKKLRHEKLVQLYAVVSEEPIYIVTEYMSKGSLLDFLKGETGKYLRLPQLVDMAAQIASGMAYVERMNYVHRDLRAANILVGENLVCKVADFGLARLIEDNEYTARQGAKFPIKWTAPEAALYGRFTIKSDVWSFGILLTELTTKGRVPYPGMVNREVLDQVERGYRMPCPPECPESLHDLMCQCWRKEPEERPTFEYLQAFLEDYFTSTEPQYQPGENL

{"Compound": "NCC1CCCn2cc(c3ccccc32)C2=C(C(=O)NC2=O)c2cn(c3ccccc23)CC1 (centres unmarked)", "Value Prefix": "=", "pIC50": 4.21}
{"Compound": "O=C1NC(=O)C2=C1c1cn(c3ccccc13)CCO[C@@H](CNS(=O)(=O)c1ccccc1)CCn1cc2c2ccccc21 [Example 21r]", "Value Prefix": "<", "pIC50": 4.00}
{"Compound": "CC(=O)NC[C@H]1CCn2cc(c3ccccc32)C2=C(C(=O)NC2=O)c2cn(c3ccccc23)CCO1 [Example 19r]", "Value Prefix": "<", "pIC50": 4.00}
{"Compound": "O=C1NC(=O)C2=C1c1cn(c3ccccc13)CCCCCCCn1cc2c2ccccc21", "Value Prefix": "<", "pIC50": 4.00}
{"Compound": "O=C1NC(=O)C2=C1c1cn(c3ccccc13)CCO[C@@H](CN1CCCC1)CCn1cc2c2ccccc21 [Example 20r]", "Value Prefix": "=", "pIC50": 4.13}

====

Reported IC50 by item:
- Assay System: PKC-α (Homo sapiens)
Where a name gives a salt, the structure may show the parent alone.
Readout: IC50 (µM)

{"Molecule": "O=C(NCC1CCCn2cc(c3ccccc32)C2=C(C(=O)NC2=O)c2cn(c3ccccc23)CC1)OCc1ccccc1 (stereo not shown) [Example 39]", "Readout": "IC50", "Test Result": 31}
{"Molecule": "O=C(NC[C@H]1CCn2cc(c3ccccc32)C2=C(C(=O)NC2=O)c2cn(c3ccccc23)CCO1)OCc1ccccc1 [Example 25r]", "Readout": "IC50", "Test Result": 94}
{"Molecule": "NCC1CCn2cc(c3ccccc32)C2=C(C(=O)NC2=O)c2cn(c3ccccc23)CCO1 (stereo not shown) [Example 4, trifluoroacetate salt]", "Readout": "IC50", "Test Result": 0.3}
{"Molecule": "NCC1CCCn2cc(c3ccccc32)C2=C(C(=O)NC2=O)c2cn(c3ccccc23)CC1 (stereo not shown) [Example 32]", "Readout": "IC50", "Test Result": 0.1}

====

- Assay System: PKC-α (Homo sapiens)
Structures can show the parent of a compound that is named as a salt.
Readout: IC50 (nM)

{"Compound": "O=C1NC(=O)C2=C1c1cn(c3ccccc13)CCCC(CO)CCn1cc2c2ccccc21 (stereo not shown) [Example 31]", "Assay System": "PKC-α (Homo sapiens)", "Readout": "IC50", "Unit Of Measure": "nM", "Value Prefix": "=", "Test Result": 300}
{"Compound": "O=C(NCC1CCn2cc(c3ccccc32)C2=C(C(=O)NC2=O)c2cn(c3ccccc23)CCCO1)OCc1ccccc1 (stereo not shown) [Example 16]", "Assay System": "PKC-α (Homo sapiens)", "Readout": "IC50", "Unit Of Measure": "nM", "Value Prefix": ">", "Test Result": 5000}
{"Compound": "O=C1NC(=O)C2=C1c1cn(c3ccccc13)CCC[C@@H](CO)CCn1cc2c2ccccc21 [Example 31r]", "Assay System": "PKC-α (Homo sapiens)", "Readout": "IC50", "Unit Of Measure": "nM", "Value Prefix": "=", "Test Result": 240}
{"Compound": "O=C1NC(=O)C2=C1c1cn(c3ccccc13)CCO[C@H](CN1CCCC1)CCn1cc2c2ccccc21 [Example 20s]", "Assay System": "PKC-α (Homo sapiens)", "Readout": "IC50", "Unit Of Measure": "nM", "Value Prefix": "=", "Test Result": 3000}
{"Compound": "O=C1NC(=O)C2=C1c1cn(c3ccccc13)CCCC(CNCc1ccccc1)CCn1cc2c2ccccc21 (stereo not shown) [Example 34, trifluoroacetate salt]", "Assay System": "PKC-α (Homo sapiens)", "Readout": "IC50", "Unit Of Measure": "nM", "Value Prefix": "=", "Test Result": 1000}
{"Compound": "O=C1NC(=O)C2=C1c1cn(c3ccccc13)CCCCCn1cc2c2ccccc21 [Example 43]", "Assay System": "PKC-α (Homo sapiens)", "Readout": "IC50", "Unit Of Measure": "nM", "Value Prefix": "=", "Test Result": 400}
{"Compound": "CC(=O)NC1CCCn2cc(c3ccccc32)C2=C(C(=O)NC2=O)c2cn(c3ccccc23)CCC1 [Example 46]", "Assay System": "PKC-α (Homo sapiens)", "Readout": "IC50", "Unit Of Measure": "nM", "Value Prefix": "=", "Test Result": 3000}
